Assay: inhibitors of the yeast RAM network, pilot screen, dse1pr::URA3 reporter, 5-FOA selection (AID 869);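 note: 0% = DMSO wells with no growth and 100% = 10 µM 1-NA-PP1 with full growth; RAM network block rescues cells from 5-FOA so hits raise OD615 growth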
Settings: S. cerevisiae dse1pr::URA3 5-FOA growth, OD615, 2 d; at 10 µM; active compounds read high; strain carries analog-sensitive mutant Cbk1 kinase
The source made the active and inactive calls.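 Rule for the calls: active = inhibition over a set limit, the all-compound mean plus 3 SD, in both replicate runs; inconclusive = over that limit in just one replicate run; inactive = at or under that limit in both runs.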
# maps each entry to its inhibition

Compound: COC(=O)C1=C(C)Nc2ccc(C)cc2S1
inhibition: 1.25% (inactive)

Compound: NC(=O)c1ccsc1NC(=O)c1cccs1
inhibition: 1.59% (inactive)

Compound: COc1ccc(-c2cc(C(F)F)n3ncc(C(=O)N4CCN(C(=O)c5ccco5)CC4)c3n2)cc1
inhibition: 0.475% (inactive)

Compound: Cc1cc(NC(=O)COC(=O)C2CCN(S(=O)(=O)c3ccc(Cl)cc3)CC2)no1
inhibition: 1.19% (inactive)

Compound: O=C(c1ccccn1)N1CCN(c2ccc(C(F)(F)F)cn2)CC1
inhibition: 1.64% (inactive)

Compound: Cc1ccc(Nc2nc(C3CC3)cs2)cc1
inhibition: 1.38% (inactive)

Compound: CCCn1c(C(O)c2ccc3c(c2)OCO3)nc2ccccc21 (stereo not drawn)
inhibition: 2.31% (inactive)

Compound: COc1ccc(-c2noc(-c3cccc(OC)c3OC)n2)cc1OC
inhibition: 2.87% (inactive)

Compound: Cc1ccc(Cl)cc1N1CCN(S(=O)(=O)c2cccc(S(=O)(=O)N3CCCC3)c2)CC1
inhibition: 2.14% (inactive)

Compound: CC1=CS/C(=C(/C#N)C(=O)N2CCCCC2)N1c1ccccc1
inhibition: 0.425% (inactive)

Compound: CN(C)C(=O)CSc1nnc(-c2cccnc2)n1-c1ccccc1
inhibition: 1.36% (inactive)

Compound: Nc1nc(Nc2ccccc2Br)nc(C(F)(F)F)n1
inhibition: 1.84% (inactive)

Compound: COc1ccc(S(=O)(=O)N2CCC(C(=O)N3CCN(c4ccccc4OC)CC3)CC2)cc1
inhibition: -0.505% (inactive)

Compound: CCN(CC)S(=O)(=O)c1ccc(C2CNC(=O)C2)cc1 (stereo not drawn)
inhibition: 1.48% (inactive)

Compound: CSc1oc(-c2ccc(F)cc2)nc1S(=O)(=O)c1ccc(F)cc1
inhibition: 1.59% (inactive)

Compound: O=C(Nc1ccccc1C(=O)N1CCOCC1)c1ccco1
inhibition: 0.27% (inactive)

Compound: Cc1cccc(NC(=O)CSc2nnc(-c3ccccc3)n2N)c1C
inhibition: 1.85% (inactive)

Compound: COc1ccc(Cn2c(=O)[nH]c3cc(C(=O)N4CCN(Cc5ccccc5)CC4)ccc3c2=O)cc1
inhibition: 0.835% (inactive)

Compound: O=C(CCCOc1ccccc1)NCC1CCCO1 (stereo not drawn)
inhibition: 4.06% (inactive)

Compound: O=C(NCC1COc2ccccc2O1)c1ccc(NC(=O)C2CCCO2)cc1 (stereo not drawn)
inhibition: 4.43% (inactive)

Compound: Cc1ccc(N(CC(=O)NC2CC3CCC2C3)S(C)(=O)=O)cc1C (stereo not drawn)
inhibition: 1.26% (inactive)

Compound: CCOc1ccc(S(=O)(=O)N(C)c2ccc(OCC(=O)Nc3ccc4[nH]c(=O)[nH]c4c3)cc2)cc1
inhibition: 0.8% (inactive)

Compound: Cc1cc(-c2ccco2)n(CC(=O)NCCCc2ccccc2)n1
inhibition: 0.905% (inactive)

====

Test: HUVEC growth inhibition – cell-based, human, primary screen (AID 575);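 note: 100% = median of untreated cell wells with 0.1% DMSO on each plate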
Conditions: HUVEC proliferation, CellTiter-Glo luminescence, 72 h; at 10 µM; active compounds read low
Outcome Measure: viability (%)

Molecule: CCOc1cccc(/C(O)=C2/C(=O)C(=O)N(CCN3CCOCC3)C2c2cccnc2)c1 (stereo unspecified)
Numeric Readout: 87.3
//
Molecule: CCn1c(SC)nc2c(c1=O)SC(C)C2 (stereo unspecified)
Numeric Readout: 113
//
Molecule: O=C(COC(=O)c1cncc(Br)c1)NCCC1=CCCCC1
Numeric Readout: 101
//
Molecule: COc1ccc(/C=N/n2c(=O)[nH]c3c([nH]c4ccc(C)cc43)c2=O)cc1CN1CCOCC1
Numeric Readout: 95.6
//
Molecule: COc1ccc(C(CNC(=O)c2ccc(OCC3CCCO3)cc2)N2CCOCC2)cc1 (stereo unspecified)
Numeric Readout: 82.9
//
Molecule: CCC(C)NC(=O)c1cc(-c2ccc(OC)cc2)on1 (stereo unspecified)
Numeric Readout: 118
//
Molecule: C=CCn1cc(C(=O)NCCOC)c(=O)c2cc(S(=O)(=O)N(CC)CC)ccc21
Numeric Readout: 86.6
//
Molecule: COCCn1c(SCc2csc(-c3ccccc3)n2)nc2ccccc21
Numeric Readout: 71.5
//
Molecule: Cn1c(=O)c2c(nc(NCCCO)n2C/C=C/c2ccccc2)n(C)c1=O
Numeric Readout: 85.7
//
Molecule: CCn1c(SCC(=O)NCc2ccco2)nc2c(c1=O)SC(C)C2 (stereo unspecified)
Numeric Readout: 103
//
Molecule: COc1cccc(-c2cc(C(=O)N3CCc4ccccc4C3)no2)c1
Numeric Readout: 67.7

====

Assay: reversal of MRP1-mediated doxorubicin resistance, pilot screen, H69AR cells, doxorubicin co-treatment (AID 601)
Conditions: H69AR cells + 2 uM doxorubicin, CellTiter-Glo, 72 h; at 10 µM; active compounds read high

Compound: CCc1ccccc1NC(=O)CSc1nc2n[nH]c(C)c2c(=N)n1-c1ccc(OC)cc1
Unit Abbrev: %
differential viability (reversal): -2.23
--
Compound: Cc1ccc(-n2cnnn2)c2cccnc12
Unit Abbrev: %
differential viability (reversal): 7.82
--
Compound: Cc1ccc(C)c(NC(=O)c2ccc3c(c2)N(Cc2ccc(F)cc2)C(=O)CS3=O)c1 (configuration not stated)
Unit Abbrev: %
differential viability (reversal): 3.96
--
Compound: CCOC(=O)c1ccccc1NC(=O)Cn1cnc2c(cnn2-c2ccc(OC)cc2)c1=O
Unit Abbrev: %
differential viability (reversal): 1.5
--
Compound: Cn1c(=O)c2[nH]c(NCC3CCCO3)nc2n(-c2ccccc2)c1=O (configuration not stated)
Unit Abbrev: %
differential viability (reversal): 10.4
--
Compound: CCc1cc(C(=O)OC)c(NC(=O)CCC(=O)O)s1
Unit Abbrev: %
differential viability (reversal): 17.8
--
Compound: Cc1ccccc1-c1nc(CN2CCC(C(=O)NCCCN3CCCC3)CC2)c(C)o1
Unit Abbrev: %
differential viability (reversal): 8.91
--
Compound: CC[N+](C)(C)c1cccc(O)c1
Unit Abbrev: %
differential viability (reversal): 9.69
--
Compound: COc1cccc(OC)c1OCCNCCO
Unit Abbrev: %
differential viability (reversal): 11.2
--
Compound: COC(=O)Nc1ccc(NC(C)=O)cc1
Unit Abbrev: %
differential viability (reversal): 8.88
--
Compound: CC(=O)NCCOc1cccc(OCCNC(C)=O)c1
Unit Abbrev: %
differential viability (reversal): -5.34
--
Compound: CN(C)CCCN1c2ccccc2CCc2ccccc21
Unit Abbrev: %
differential viability (reversal): 4.16

====

# maps each entry to its viability
Test: growth suppression of PTEN-deleted HCT116, pilot screen, cell-based, HCT116 clonal line, CellTiter-Glo (AID 824);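 note: 0% = 20 µM Hyamine control and 100% = vehicle cell control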
Conditions: 60 h, at 10 µM, active compounds read low
Records with an inconclusive call do not appear. Activity calls are given as the source filed them.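 How the source made its calls: active means viability at or below 27.92% in each of two runs, the all-compound median minus 4 SD; inconclusive means no clear call, values can overlap the other calls; inactive means the rest.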

Compound: C#CCN1C(=O)C(O)(CC(=O)c2ccc(OC)c(OC)c2)c2ccccc21 (stereo unspecified)
viability: 48% (inactive)

Compound: Clc1ccc(-n2ncc3c(N4CCCCCC4)ncnc32)cc1
viability: 78.5% (inactive)

Compound: FC(F)(F)C12CC(c3ccccc3)=NCCN1CCN2 (stereo unspecified)
viability: 97.9% (inactive)

Compound: CCN1CCN(CC(=O)Nc2ccccc2)C(=O)C1=O
viability: 107% (inactive)

Compound: Cc1ccc(S(=O)(=O)NCCCN2CCOCC2)c(C)c1
viability: 95.5% (inactive)

Compound: O=C(c1ccc(NC2=NC3CS(=O)(=O)CC3S2)cc1)N1CCc2ccccc2C1 (stereo unspecified)
viability: 106% (inactive)

Compound: O=C(Cn1nc(Cc2cccnc2)c2ccccc2c1=O)NCC1COc2ccccc2O1 (stereo unspecified)
viability: 95.3% (inactive)

Compound: CCn1c2ccccc2c2nnc(SCc3cc(=O)n4ccsc4n3)nc21
viability: 86.3% (inactive)

Compound: Cc1cc(NC(=O)c2cc(-c3cccs3)nc3ccccc23)no1
viability: 30.9% (inactive)

Compound: CCn1cc(S(=O)(=O)CC(=O)NC2CCCCC2)c2ccccc21
viability: 97.4% (inactive)

Compound: CCN1C(=O)CSc2ccc(C(=O)OC)cc21
viability: 90.3% (inactive)

====

Assay: OD615 S. cerevisiae growth inhibition, permissive medium, pilot counter-assay, permissive growth control for S. cerevisiae lifespan shortening project (AID 705)
Conditions: OD615, 24 h, at 10 µM, active compounds read high

Molecule: CC(=O)NCc1nc2ccccc2n1Cc1ccccc1C
growth inhibition (%): 2.5
--
Molecule: CCCc1cc(=O)oc2cc3occ(C)c3cc12
growth inhibition (%): -10.3
--
Molecule: CC1(C)CC(=O)c2cc(C(=O)N3CCN(CCO)CC3)c(=O)n(-c3ccc(Cl)cc3)c2C1
growth inhibition (%): -6.56
--
Molecule: N#Cc1cn(CC(=O)NCC2CCCO2)c2ccccc12 (centres undefined)
growth inhibition (%): 1.68
--
Molecule: N#Cc1c2n(cnc1=O)CCCCC2
growth inhibition (%): -15.7
--
Molecule: COc1ccc(C2N3CC4(C)CN2CC(C)(C3)C4)cc1OC (centres undefined)
growth inhibition (%): -3.73
--
Molecule: COc1ccc(C)c2sc(=NC(=O)C(C)C)n(C)c12
growth inhibition (%): -6.53
--
Molecule: CCN(CC)CCNC(=O)c1cc2c(=O)n(C)c3ccccc3c2n1C
growth inhibition (%): -4.52
--
Molecule: Cc1cc(C)nc(SCCn2c(N3CCC(C)CC3)nc3c2c(=O)n(C)c(=O)n3C)n1
growth inhibition (%): -3.83
--
Molecule: COCCCN(C(=O)Nc1ccc(C)c(C)c1)C(C)c1ccccn1 (centres undefined)
growth inhibition (%): 2.01
--
Molecule: COc1cccc(C(=O)Nc2ccc3nc(N4CCOCC4)cc(C)c3c2)c1
growth inhibition (%): -7.63
--
Molecule: CCCCCc1nnc(NC(=O)OCCC)s1
growth inhibition (%): -1
--
Molecule: C=CCn1c(SCCCc2ccccc2)nc2c1c(=O)[nH]c(=O)n2C
growth inhibition (%): 5.96
--
Molecule: Cc1c(N=C2C(=O)Nc3ccccc32)c(=O)n(-c2ccccc2)n1C
growth inhibition (%): -1.19
--
Molecule: O=C(CSc1nc2c(c(=O)n1-c1ccc(Br)cc1)SCC2)NCc1ccco1
growth inhibition (%): -0.48
--
Molecule: Cc1ccc(S(=O)(=O)/N=C(\CN2CCCCC2)N2CCOCC2)cc1
growth inhibition (%): -11.4
--
Molecule: CN(Cc1ccccc1)C(=O)COC(=O)c1ccc2c(c1)OCO2
growth inhibition (%): -6.52
--
Molecule: Cc1cccn2cc(-c3ccc(S(=O)(=O)N4CCOCC4)cc3)nc12
growth inhibition (%): -12.6
--
Molecule: CCOC(=O)c1ccc(S(=O)(=O)N2CCN(CCC#N)CC2)cc1
growth inhibition (%): -7.13
--
Molecule: C=CCn1c(C)nc2c(c1=O)c1nc3ccccc3nc1n2-c1ccc(C)cc1
growth inhibition (%): -4.19
--
Molecule: Cc1nnc(SCc2ccc(Cl)cc2Cl)[nH]c1=O
growth inhibition (%): -11.1
--
Molecule: CCOC(=O)N1CCN(C(=O)CNS(=O)(=O)c2cccs2)CC1
growth inhibition (%): 7.6
--
Molecule: O=C(NCc1cccnc1)c1cnn2ccccc12
growth inhibition (%): -7.88
--
Molecule: O=C(Cn1ncc2c(=O)oc3ccccc3c21)N1CCCN(Cc2ccccc2F)C1
growth inhibition (%): -3.74

This collection of values is drawn from PubChem BioAssay.
